Consider the following molecules and their measured pIC50 readings.
- TARGET SYSTEM: UniProtKB P00746
- Sequence (P00746 26-253): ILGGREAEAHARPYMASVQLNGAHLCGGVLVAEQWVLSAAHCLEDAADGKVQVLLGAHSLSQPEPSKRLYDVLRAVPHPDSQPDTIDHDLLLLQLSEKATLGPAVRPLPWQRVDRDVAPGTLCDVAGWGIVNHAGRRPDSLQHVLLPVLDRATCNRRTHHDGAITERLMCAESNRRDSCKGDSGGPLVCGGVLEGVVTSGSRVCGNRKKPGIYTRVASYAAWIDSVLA
- ASSAY NAME: biochemical
- Type: biochemical
- MEASUREMENT SETUP: read-out: IC50
pIC50 (log units): -log10 of the concentration in mol/L.

Some molecules with recorded pIC50:
>  <MOLECULE>
NC(=O)n1cc(NC(=O)N2C[C@@H](N)C[C@H]2C(=O)NCc2cccc(-c3ccc(Cl)s3)c2)c2ccccc21

>  <pIC50>
5.49

$$$$
>  <MOLECULE>
NC(=O)n1cc(NC(=O)N2C[C@@H](N)C[C@H]2C(=O)Nc2ccccc2)c2ccccc21

>  <pIC50>
5.08

$$$$

Incoming: Query for UniProtKB P00746: what pIC50 does the record show for `NC(=O)c1nn(CC(=O)N2[C@@H]3C[C@@H]3C[C@H]2C(=O)NCc2cccc(Cl)c2F)c2ccncc12` ?
Outgoing: 7.66

Incoming: Query for UniProtKB P00746: what pIC50 does the record show for `NC(=O)n1cc(NC(=O)N2CC[C@@H](F)[C@H]2C(=O)NCc2cccc(Cl)c2F)c2ccccc21` ?
Outgoing: 7.70

Incoming: Query for UniProtKB P00746: what pIC50 does the record show for `NC(=O)n1cc(NC(=O)N2C[C@H](F)C[C@H]2C(=O)NCc2cccc(Br)c2F)c2ccccc21` ?
Outgoing: 8.05
